# credit: ChEMBL document CHEMBL1833882

# System: Klebsiella pneumoniae
# Assay protocol: Antibacterial activity against Klebsiella pneumoniae ATCC 13882 after 18 hrs by broth dilution method
# Assay type: functional
# Measurement conditions: ATCC 13882, 18 h
Record form. Attribute: MIC. Fill in for each entry.
Numbers only, in µg/mL.

Enquiry: Quick one: MIC of O=CN1CCN(c2cc3c(cc2F)c(=O)c(C(=O)O)cn3C2CC2)CC1 ?
Return: 0.156

Enquiry: Quick one: MIC of O=C(O)c1cn(C2CC2)c2cc(N3CCNCC3)c(F)cc2c1=O ?
Return: 0.039

Moving on to the next compound.
Enquiry: Quick one: MIC of CCn1ccc(=O)c2cc(F)c(N3CCNCC3)cc21 ?
Return: 40

###

# Tested on: Escherichia coli
# Assay protocol: Antibacterial activity against TolC deficient Escherichia coli 701 after 18 hrs by broth dilution method
# Assay type: functional
# Measurement conditions: Escherichia coli, 701, 18 h
Record form. Attribute: MIC. Fill in for each entry.

Enquiry: Which measured MIC belongs to O=CN1CCN(c2cc3c(cc2F)c(=O)ccn3C2CC2)CC1 , tested on Escherichia coli?
Return: > 80 µg/mL

Quick batch: MIC for everything below.
1. O=CN1CCN(c2cc3c(cc2F)c(=O)c(C(=O)O)cn3C2CC2)CC1
2. CCN1CCN(c2cc3c(cc2F)c(=O)c(C(=O)O)cn3C2CC2)CC1
3. O=c1ccn(C2CC2)c2cc(N3CCNCC3)c(F)cc12

Return:
["≤ 0.078 µg/mL", "≤ 0.01 µg/mL", "> 80 µg/mL"]

###

# Tested on: Escherichia coli
# Assay protocol: Antibacterial activity against TolC deficient Escherichia coli 701 after 18 hrs by broth dilution method
# Format: functional
# Measurement conditions: Escherichia coli, 701, 18 h
Observable: MIC (µg/mL)
Answers are plain numbers, in µg/mL.

Worked examples, 3 molecules total:
Enquiry: Which measured MIC belongs to CCn1cc(C(=O)O)c(=O)c2cc(F)c(N3CCNCC3)cc21 [NORFLOXACIN] , tested on Escherichia coli?
Return: 0.039

Enquiry: Which measured MIC belongs to CCn1ccc(=O)c2cc(F)c(N3CCNCC3)cc21 , tested on Escherichia coli?
Return: 5

Enquiry: Which measured MIC belongs to CCn1ccc(=O)c2cc(F)c(N3CCN(C=O)CC3)cc21 , tested on Escherichia coli?
Return: 40

Next:
Enquiry: Which measured MIC belongs to CC1CN(c2c(F)cc3c(=O)ccn(C4CC4)c3c2F)CCN1 (stereo unspecified) , tested on Escherichia coli?
Return: 15

###

# Tested on: Pseudomonas aeruginosa
# Assay protocol: Antibacterial activity against Pseudomonas aeruginosa PAO1 ATCC BAA-47 after 18 hrs by broth dilution method
# Format: functional
# Measurement conditions: PAO1 ATCC BAA-47, 18 h
Record form. Attribute: MIC. Fill in for each entry.
One number for each entry, in mg/L.

Worked examples, 3 compounds total:
Enquiry: Quick one: MIC of CC1CN(c2c(F)cc3c(=O)c(C(=O)O)cn(C4CC4)c3c2F)CCN1 (stereo unspecified) ?
Return: 1.25

Enquiry: Quick one: MIC of O=C(O)c1cn(C2CC2)c2cc(N3CCNCC3)c(F)cc2c1=O ?
Return: 0.313

Enquiry: Quick one: MIC of O=CN1CCN(c2cc3c(cc2F)c(=O)c(C(=O)O)cn3C2CC2)CC1 ?
Return: 10

Quick batch: MIC for everything below.
1. CCN1CCN(c2cc3c(cc2F)c(=O)c(C(=O)O)cn3C2CC2)CC1
2. CCn1cc(C(=O)O)c(=O)c2cc(F)c(N3CCNCC3)cc21

Return:
1. 4.4
2. 1.25
